experiment: yeast transport mutant growth inhibition pilot in 384-well plates, post-Golgi transport modulator project (AID 636); settings: absorbance 615 nm, about 18 h, active compounds read high
Calls of active or inactive are those of the source. Rule as the data show it: active = inhibition above about 31%; inactive = the rest.
QUANTITY_MEASURED: inhibition

Illustrative cases are given below, each with its answer.
                                   compound                val
0   CCCCNC(=O)c1c(N)n(CCCOC)c2nc3ccccc3nc12    1.1% (inactive)
1  O=c1[nH]c(=O)n(-c2ccc(F)cc2)c(O)c1C=Nc1ccccc1N1CCCC1  -3.55% (inactive)
2                  Cc1ccc(C)c(NC2=NCCCS2)c1  -8.08% (inactive)
3  COc1ccc(CCn2c(O)c(C=NCc3cccnc3)c(=O)[nH]c2=O)cc1OC  -4.67% (inactive)
4  COc1ccccc1N(CC(=O)NC1CCCCC1)C(=O)c1cnn(C(C)C)c1   1.08% (inactive)
5  CC1(C)Cc2c(sc3c2C(=O)NC(c2cccnc2)N3)CO1 (stereo not drawn)  -3.47% (inactive)

Please go through the list and note inhibition for each compound.
1. CCOC(=O)c1cccc([P+](=O)O)c1
2. CCN1c2nc3c(C)cccn3c(=O)c2CC2(C(=O)N(C)C(=O)N(C)C2=O)C1C (stereo not drawn)
3. CN(C)CCc1nc2ccccc2c(=O)n1-c1ccccc1
4. O=C(NC1(C(F)(F)F)Oc2ccc(Cl)cc2O1)N1CCC2(CC1)OCCO2 (stereo not drawn)
5. C=CCn1c(O)c(C(C)=NCCCO)c(=O)[nH]c1=O
6. O=C(NCc1ccccn1)c1ccccc1Cl
7. O=C(c1sc2ccccc2c1Cl)N1CCC2(CC1)OCCO2
8. COC(=O)c1c(C)n(Cc2ccc3c(c2)OCO3)c2ccc(O)cc12

1: 3.95% (inactive); 2: -4.59% (inactive); 3: -2.08% (inactive); 4: -2.47% (inactive); 5: -4.94% (inactive); 6: -7.95% (inactive); 7: 0.13% (inactive); 8: -3.6% (inactive)

Please go through the list and note inhibition for each compound.
1. O=C(c1ccncc1)C12CN3CN(CN(C3)C1)C2
2. CCCCn1c(C)c(C(=O)OCC)c2c(CN3CCOCC3)c(O)ccc21
3. Cc1nc2ccccc2c(=O)n1-c1ccc(F)cc1
4. COc1cc(/C=N/n2cnnc2)ccc1OC(=O)N(C)C
5. CCC(=NCC1CCCO1)c1c(O)n(Cc2ccccc2)c(=O)[nH]c1=O (stereo not drawn)
6. CC(=O)C1C(=O)NC23CCCCC2C1c1ccccc1O3 (stereo not drawn)

["-3.25% (inactive)", "-4.34% (inactive)", "-5.32% (inactive)", "-4.21% (inactive)", "-4.29% (inactive)", "-3.87% (inactive)"]

Please go through the list and note inhibition for each compound.
1. CC#CP(=O)(OCC)C(O)(c1ccccc1)C(F)(F)F (stereo not drawn)
2. C[C@H]1CCCC(=O)CCCCCc2cc(O)cc(O)c2C(=O)O1
3. CCc1ccc(OCCCN=C(C)c2c(O)n(C)c(=O)n(C)c2=O)cc1

["-2.93% (inactive)", "0.26% (inactive)", "-1.95% (inactive)"]

----------
molecular target: Pantothenate synthetase (Mycobacterium tuberculosis (strain ATCC 25618 / H37Rv)); experiment: Coupled enzyme confirmation of inhibitors against recombinant Mtb PanC (AID 375); conditions: coupled enzyme assay; at 10 µM, active compounds read high;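 also: 0% = full reaction with vehicle and 100% = no enzyme background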
Give measured inhibition for each item. Keep answers brief.
Give bare numbers, in %.

>>> print(df.to_string())
                                   compound  val
0  CC(=O)OCC(=O)[C@H]1CC[C@H]2[C@@H]3CCC4=CC(=O)CC[C@]4(C)[C@H]3CC[C@]12C    1

Please go through the list and note inhibition for each compound.
1. Nn1c(SCc2csc(-c3ccccc3)n2)nnc1-c1cccs1
2. O=C(COn1nnc2ccc(C(F)(F)F)cc21)Nc1nnc(-c2ccccc2)o1
3. CC1CCN(CCCNC(=O)c2coc3nc4ccccc4nc23)CC1
4. COC(=O)Nc1ccccc1C(=O)N1CCCCC1
5. CS(=O)(=O)N1CCN(C(=O)c2ccc(-c3ccccc3)cc2)CC1
6. CCOc1ccc(CNC(=O)C2CCCN(S(C)(=O)=O)C2)cc1OC (stereo not drawn)
7. Cn1c(SCC(=O)N2CCN(c3cccc(Cl)c3)CC2)nnc1-c1ccncc1

[0, 0, 1, 0, 9, 0, 0]
